Data origin, for the record: patent US11795460B2

Test system: TTR
PROTOCOL NOTES: TTR editing in HEK293_Cas9 cells transfected with dgRNAs (Table 4)
Type: cell-based, human
SETUP CONDITIONS: HEK293_Cas9 cells (constitutively express Spy Cas9) transfected with dgRNAs
// NB: equality with 30% counts as n; only Avg % Edit strictly below is y

- SEQUENCE INPUT: "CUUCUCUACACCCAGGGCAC (tested as dual guide RNA, chemistry not given here) [CR003342]"
  STUDY TARGET: "TTR"
  CLASS LABEL: "n"
- SEQUENCE INPUT: "ACCUGGGAGCCAUUUGCCUC (tested as dual guide RNA, chemistry not given here) [CR003354]"
  STUDY TARGET: "TTR"
  CLASS LABEL: "y"
- SEQUENCE INPUT: "UGCACGGCCACAUUGAUGGC (tested as dual guide RNA, chemistry not given here) [CR003349]"
  STUDY TARGET: "TTR"
  CLASS LABEL: "y"
- SEQUENCE INPUT: "AGGCAGUCCUGCCAUCAAUG (tested as dual guide RNA, chemistry not given here) [CR003348]"
  STUDY TARGET: "TTR"
  CLASS LABEL: "n"
- SEQUENCE INPUT: "CUGGUAUUUGUGUCUGAGGC (tested as dual guide RNA, chemistry not given here) [CR003341]"
  STUDY TARGET: "TTR"
  CLASS LABEL: "y"
- SEQUENCE INPUT: "UUCUUUGGCAACUUACCCAG (tested as dual guide RNA, chemistry not given here) [CR003357]"
  STUDY TARGET: "TTR"
  CLASS LABEL: "n"
- SEQUENCE INPUT: "GAAAGGCUGCUGAUGACACC (tested as dual guide RNA, chemistry not given here) [CR003352]"
  STUDY TARGET: "TTR"
  CLASS LABEL: "y"

====

Tested on: TTR
PROTOCOL NOTES: TTR editing in HUH7 cells transfected with Spy Cas9 mRNA and dgRNAs (Table 5)
Format: cell-based, human
SETUP CONDITIONS: HUH7 cells co-transfected with Spy Cas9 mRNA (SEQ ID NO:2) and dgRNAs
Listed sequences paired with reported Avg % Deletion
PROPERTY: Avg % Deletion (%)

- SEQUENCE INPUT: "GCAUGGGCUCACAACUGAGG (tested as dual guide RNA, chemistry not given here) [CR003362]"
  RECORDED MEASUREMENT: 23.76
- SEQUENCE INPUT: "ACUGAGGAGGAAUUUGUAGA (tested as dual guide RNA, chemistry not given here) [CR003363]"
  RECORDED MEASUREMENT: 23.78
- SEQUENCE INPUT: "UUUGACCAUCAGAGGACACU (tested as dual guide RNA, chemistry not given here) [CR003344]"
  RECORDED MEASUREMENT: 54.40
- SEQUENCE INPUT: "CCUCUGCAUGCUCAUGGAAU (tested as dual guide RNA, chemistry not given here) [CR003370]"
  RECORDED MEASUREMENT: 35.55
- SEQUENCE INPUT: "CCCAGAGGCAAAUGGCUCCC (tested as dual guide RNA, chemistry not given here) [CR003355]"
  RECORDED MEASUREMENT: 30.31
- SEQUENCE INPUT: "AAAUAGACACCAAAUCUUAC (tested as dual guide RNA, chemistry not given here) [CR003366]"
  RECORDED MEASUREMENT: 50.32
- SEQUENCE INPUT: "CCAGUCCAGCAAGGCAGAGG (tested as dual guide RNA, chemistry not given here) [CR003337]"
  RECORDED MEASUREMENT: 48.95
- SEQUENCE INPUT: "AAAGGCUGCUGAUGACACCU (tested as dual guide RNA, chemistry not given here) [CR003353]"
  RECORDED MEASUREMENT: 62.87
- SEQUENCE INPUT: "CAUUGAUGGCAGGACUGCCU (tested as dual guide RNA, chemistry not given here) [CR003347]"
  RECORDED MEASUREMENT: 30.79
- SEQUENCE INPUT: "AUUGGUGACGACAGCCGUGG (tested as dual guide RNA, chemistry not given here) [CR003389]"
  RECORDED MEASUREMENT: 50.90
- SEQUENCE INPUT: "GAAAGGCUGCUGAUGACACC (tested as dual guide RNA, chemistry not given here) [CR003352]"
  RECORDED MEASUREMENT: 32.79
- SEQUENCE INPUT: "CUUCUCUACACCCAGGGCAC (tested as dual guide RNA, chemistry not given here) [CR003342]"
  RECORDED MEASUREMENT: 44.66
- SEQUENCE INPUT: "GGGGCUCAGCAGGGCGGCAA (tested as dual guide RNA, chemistry not given here) [CR003381]"
  RECORDED MEASUREMENT: 99.70
- SEQUENCE INPUT: "GUGAGUCUGGAGAGCUGCAU (tested as dual guide RNA, chemistry not given here) [CR003360]"
  RECORDED MEASUREMENT: 55.13
- SEQUENCE INPUT: "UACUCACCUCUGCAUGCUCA (tested as dual guide RNA, chemistry not given here) [CR003372]"
  RECORDED MEASUREMENT: 17.25
- SEQUENCE INPUT: "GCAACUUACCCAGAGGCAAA (tested as dual guide RNA, chemistry not given here) [CR003356]"
  RECORDED MEASUREMENT: 31.31
- SEQUENCE INPUT: "CACAUGCACGGCCACAUUGA (tested as dual guide RNA, chemistry not given here) [CR003350]"
  RECORDED MEASUREMENT: 41.64
- SEQUENCE INPUT: "UGUAGAAGGGAUAUACAAAG (tested as dual guide RNA, chemistry not given here) [CR003365]"
  RECORDED MEASUREMENT: 43.82
- SEQUENCE INPUT: "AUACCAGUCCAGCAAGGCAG (tested as dual guide RNA, chemistry not given here) [CR003338]"
  RECORDED MEASUREMENT: 67.06
- SEQUENCE INPUT: "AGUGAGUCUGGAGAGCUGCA (tested as dual guide RNA, chemistry not given here) [CR003359]"
  RECORDED MEASUREMENT: 45.97
- SEQUENCE INPUT: "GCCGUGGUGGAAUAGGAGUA (tested as dual guide RNA, chemistry not given here) [CR003387]"
  RECORDED MEASUREMENT: 25.55
- SEQUENCE INPUT: "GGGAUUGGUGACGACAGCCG (tested as dual guide RNA, chemistry not given here) [CR003390]"
  RECORDED MEASUREMENT: 16.49
- SEQUENCE INPUT: "UCUAGAACUUUGACCAUCAG (tested as dual guide RNA, chemistry not given here) [CR003345]"
  RECORDED MEASUREMENT: 32.18
- SEQUENCE INPUT: "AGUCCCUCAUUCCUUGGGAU (tested as dual guide RNA, chemistry not given here) [CR003392]"
  RECORDED MEASUREMENT: 26.98
- SEQUENCE INPUT: "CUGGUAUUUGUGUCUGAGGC (tested as dual guide RNA, chemistry not given here) [CR003341]"
  RECORDED MEASUREMENT: 13.20
- SEQUENCE INPUT: "GGGCGGCAAUGGUGUAGCGG (tested as dual guide RNA, chemistry not given here) [CR003379]"
  RECORDED MEASUREMENT: 16.48
- SEQUENCE INPUT: "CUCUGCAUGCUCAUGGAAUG (tested as dual guide RNA, chemistry not given here) [CR003369]"
  RECORDED MEASUREMENT: 17.38
- SEQUENCE INPUT: "AAGUGCCUUCCAGUAAGAUU (tested as dual guide RNA, chemistry not given here) [CR003368]"
  RECORDED MEASUREMENT: 29.69
